Measurement record for hPXR (Homo sapiens (Human)); quantity recorded: pEC50.
Give bare numbers, as −log10 of the molar value.

Answered cases to consult:
{"columns": ["Smiles Representation", "Tested Target", "pEC50"],
 "data": [
  ["COc1ccc(Cl)cc1-n1nnc(N(C)c2ccc(C(C)(C)C)cc2)c1C", "hPXR (Homo sapiens (Human))", 6.15],
  ["COC(=O)c1cc(OC)c(-n2nnc(S(=O)(=O)c3ccc(C(C)(C)C)cc3)c2C)cc1C", "hPXR (Homo sapiens (Human))", 5.77],
  ["COc1cc(OC)c(-n2nnc(S(=O)(=O)c3ccc(C(C)(C)C)cc3)c2C)cc1OC", "hPXR (Homo sapiens (Human))", 5.14],
  ["COc1ccc(C)cc1-c1nc(C)c(S(=O)(=O)c2ccc(C(C)(C)C)cc2)n1C", "hPXR (Homo sapiens (Human))", 6.10],
  ["COc1ccc(Cl)cc1-c1ncc(S(=O)(=O)c2ccc(C(C)(C)C)cc2)[nH]1", "hPXR (Homo sapiens (Human))", 6.21],
  ["COc1ccc(C)cc1-n1nnc(N(C)c2ccc(C(C)(C)C)cc2)c1C", "hPXR (Homo sapiens (Human))", 6.14],
  ["COc1ccc(OC)c(-c2nc(C)c(S(=O)(=O)c3ccc(C(C)(C)C)cc3)n2C)c1", "hPXR (Homo sapiens (Human))", 5.55],
  ["COc1ccc(C)cc1-n1nnc(S(=O)(=O)c2ccc(C(C)(C)C)cc2)c1N", "hPXR (Homo sapiens (Human))", 5.89],
  ["COC(=O)c1cc(OC)c(-n2nnc(S(=O)(=O)c3ccc(C(C)(C)C)cc3)c2C)cc1OC", "hPXR (Homo sapiens (Human))", 5.42],
  ["COC(=O)c1cc(OC)c(-n2nnc(S(=O)(=O)c3ccc(C(C)(C)C)cc3)c2C)cc1Cl", "hPXR (Homo sapiens (Human))", 5.80]
]}

// input: 2 compounds below; output: pEC50 for each
1. COc1ccc(Cl)cc1-n1nnc(S(=O)(=O)c2ccc(C(C)(C)C)cc2)c1C(C)=O
2. COc1cc(C(C)=O)c(C)cc1-n1nnc(S(=O)(=O)c2ccc(C(C)(C)C)cc2)c1C

RESULT:
6.28
6.80

Provide each entry's pEC50 from the list below.
1. COc1cc(-n2nnc(S(=O)(=O)c3ccc(C(C)(C)C)cc3)c2C)c(OC)cc1C
2. COc1cc(-n2nnc(S(=O)(=O)c3ccc(C(C)(C)C)cc3)c2C)c(OC)cc1C(C)C

RESULT:
1: 6.06; 2: 6.08

Look at each compound and report its pEC50.
1. COc1ccc(Cl)cc1-n1nnc(S(=O)(=O)c2ccc(C(C)(C)C)cc2)c1C#N
2. COc1ccc(Cl)cc1-c1nc(C)c(S(=O)(=O)c2ccc(C(C)(C)C)cc2)[nH]1
3. COc1cc(-n2nnc(S(=O)(=O)c3ccc(C(C)(C)C)cc3)c2C)c(OC)cc1Cl

RESULT:
[6.85, 6.04, 6.08]

---

Target: UniProt Q96RI1
Sequence (Q96RI1 whole entry, looked up): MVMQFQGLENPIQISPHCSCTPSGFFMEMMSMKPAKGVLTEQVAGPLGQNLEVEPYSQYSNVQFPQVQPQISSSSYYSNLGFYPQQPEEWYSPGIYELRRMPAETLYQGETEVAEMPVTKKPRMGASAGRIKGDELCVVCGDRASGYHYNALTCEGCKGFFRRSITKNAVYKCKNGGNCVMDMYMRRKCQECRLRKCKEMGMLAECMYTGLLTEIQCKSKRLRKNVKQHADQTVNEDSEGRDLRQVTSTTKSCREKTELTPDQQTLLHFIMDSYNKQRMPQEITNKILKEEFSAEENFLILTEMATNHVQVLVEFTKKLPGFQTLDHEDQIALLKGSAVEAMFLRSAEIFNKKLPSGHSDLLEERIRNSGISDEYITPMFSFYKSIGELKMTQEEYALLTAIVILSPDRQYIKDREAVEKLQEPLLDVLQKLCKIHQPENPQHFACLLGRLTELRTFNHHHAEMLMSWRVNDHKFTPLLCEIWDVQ
Assay: human Farnesoid X receptor (hFXR) transactivation assay
Conditions: Anta = compound exhibited antagonism; read-out: FXR (Anta)
Property Label: IC50 (µM)
Answers are plain numbers, in µM.

# count of solved cases: 2
{"columns": ["Compound", "Value Units", "Number"],
 "data": [
  ["COc1ccc(O)c(-n2nnc(S(=O)(=O)c3ccc(C(C)(C)C)cc3)c2C)c1 [LC-86]", "µM", 21.9],
  ["COc1ccc(OC)c(-n2nnc(S(=O)(=O)c3ccc(C(C)(C)C)cc3)c2CCl)c1 [LC-64]", "µM", 6.3]
]}

Now consider the entry below.
QUERY: What value of IC50 has been recorded for this entry: COc1ccc(OC)c(-c2ncc(S(=O)(=O)c3ccc(C(C)(C)C)cc3)n2C)c1 [LC-70]
RESULT: 14.3
